Please consider the recorded GI50 for NCI-H2228 in what follows.
measured_property: GI50 (nM)

Before answering, review these 5 worked examples.
INSERT INTO assay_data (molecule, measured_property, meas_value) VALUES
  ('C=CC(=O)Nc1cc(Nc2ncc(Cl)c(Nc3cccc(C(F)(F)F)c3)n2)c(OC)cc1N1CCN(C)CC1', 'GI50', 170),
  ('C=CC(=O)Nc1cc(Nc2ncc(Cl)c(Nc3ccccc3S(=O)(=O)C(C)C)n2)c(OC)cc1N1CCN(CCF)CC1', 'GI50', 260),
  ('C=CC(=O)Nc1cc(Nc2ncc(Cl)c(Nc3ccccc3S(=O)(=O)C(C)C)n2)c(OC)cc1N1CCN[C@@H](C)C1', 'GI50', 73),
  ('C=CC(=O)Nc1cc(Nc2ncc(Cl)c(Nc3ccccc3S(=O)(=O)C(C)C)n2)c(OC)cc1N1CCN(C2CCCCC2)CC1', 'GI50', 70),
  ('C=CC(=O)Nc1cc(Nc2ncc(Cl)c(Nc3ccccc3S(=O)(=O)C(C)C)n2)c(OC)cc1N1CCC(N2CCN(C)CC2)CC1', 'GI50', 350);

(I) C=CC(=O)Nc1cc(Nc2ncc(C)c(Nc3ccccc3S(=O)(=O)C(C)C)n2)c(OC)cc1N1CCC(N2CCN(C)CC2)CC1
(II) COc1cc(N2CCC(N3CCN(C)CC3)CC2)ccc1Nc1ncc(Cl)c(Nc2ccccc2S(=O)(=O)C(C)C)n1 [TAE-684, reference compound]
(III) C=CC(=O)Nc1cccc(Oc2nc(Nc3ccc(N4CCN(C)CC4)cc3OC)ncc2Cl)c1 [WZ4002, reference compound]
(IV) C=CC(=O)Nc1cc(Nc2ncc(Cl)c(Nc3ccccc3S(=O)(=O)C(C)C)n2)c(OC)cc1N1CCOCC1
### Prompt Sort low-to-high on GI50, please. In your reply, arrange the labels in the requested order.
### Response IV, I, II, III
(IV: 31 nM, I: 330 nM, II: 580 nM, III: 1100 nM)

----------
System: A431
test_method_notes: Growth of cancer cells (Cell Titer-Glo viability), A431
Type: cell-based
study_conditions: Homo sapiens, A-431; A431 (wild-type EGFR), 72 hrs; read-out: GI50
Method: By testing the effect of the novel kinase inhibitors on the proliferation of cancer cells, the selectivity of the compounds of the present disclosure in inhibiting the proliferation of cancer cells was further assessed. […] The number of viable cells was determined quantitatively by a microplate reader using Cell Titer-Glo® (Promega, US) chemiluminescence cell viability assay kit.
measured_property: GI50 (µM)

INSERT INTO results (structure_string, meas_value) VALUES
  ('C=CC(=O)Nc1cc(Nc2ncc(Cl)c(Nc3ccccc3S(=O)(=O)C(C)C)n2)c(OC)cc1N1CCCN(C)CC1', 0.17);

(I) CCC(=O)Nc1cc(Nc2ncc(Cl)c(Nc3ccccc3S(=O)(=O)C(C)C)n2)c(OC)cc1N1CCC(N2CCN(C)CC2)CC1
(II) C=CC(=O)Nc1cc(Nc2ncc(Cl)c(Nc3ccccc3S(=O)(=O)C(C)C)n2)c(OC)cc1N1CCN(C(=O)OC(C)(C)C)CC1
### Prompt Between the entries labeled I and II , whose measured GI50 is lower? Lab log: write the label of the selected item as the result.
### Response I
(I: 0.84 µM, II: 1.2 µM)

(P) C=CC(=O)Nc1cc(Nc2ncc(Cl)c(Nc3ccc(F)c(Cl)c3)n2)c(OC)cc1N1CCN(C)CC1
(Q) C=CC(=O)Nc1cc(Nc2ncc(Cl)c(Nc3ccccc3S(=O)(=O)C(C)C)n2)c(OC)cc1N1CCC(N2CCN(C)CC2)CC1
### Prompt Between the entries labeled P and Q , whose measured GI50 is lower? Lab log: write the label of the selected item as the result.
### Response Q
(Q: 0.37 µM, P: 1.1 µM)

(P) C=CC(=O)Nc1cc(Nc2ncc(Cl)c(Nc3ccccc3S(=O)(=O)C(C)C)n2)c(OC)cc1N1CCN(C)CC1
(Q) C=CC(=O)Nc1cc(Nc2ncc(Cl)c(Nc3ccccc3S(=O)(=O)C(C)C)n2)c(OC)cc1N1CCN(S(C)(=O)=O)CC1
(R) C=CC(=O)Nc1cc(Nc2ncc(Cl)c(Nc3ccccc3S(=O)(=O)C(C)C)n2)c(OC)cc1N1CCN(C2CCCCC2)CC1
(S) C=CC(=O)Nc1cc(Nc2ncc(Cl)c(Nc3cccc(C(F)(F)F)c3)n2)c(OC)cc1N1CCN(C)CC1
### Prompt // sort entries: GI50, high to low In your reply, arrange the labels in the requested order.
### Response S, Q, R, P
(S: 4.6 µM, Q: 1.1 µM, R: 0.37 µM, P: 0.25 µM)

(A) C=CC(=O)Nc1cc(Nc2ncc(Cl)c(Nc3ccccc3S(=O)(=O)C(C)C)n2)c(OC)cc1N1CCNCC1
(B) C=CC(=O)Nc1cc(Nc2ncc(Cl)c(Nc3ccccc3S(=O)(=O)C(C)C)n2)c(OC)cc1N1CCOCC1
### Prompt Between the entries labeled A and B , whose measured GI50 is lower? Lab log: write the label of the selected item as the result.
### Response A
(A: 0.43 µM, B: 0.84 µM)

----------
Please consider the recorded GI50 for NCI-H460 in what follows.
measured_property: GI50 (nM)

Before answering, review these 2 worked examples.
INSERT INTO measurements (compound, test_system, meas_value) VALUES
  ('CCC(=O)Nc1cc(Nc2ncc(Cl)c(Nc3ccccc3S(=O)(=O)C(C)C)n2)c(OC)cc1N1CCC(N2CCN(C)CC2)CC1 [Compound 30]', 'NCI-H460', 440),
  ('C=CC(=O)Nc1cc(Nc2ncc(Cl)c(Nc3ccccc3S(=O)(=O)C(C)C)n2)c(OC)cc1N1CCC(N2CCN(C)CC2)CC1 [Compound 8]', 'NCI-H460', 660);

(1) COc1cc(N2CCC(N3CCN(C)CC3)CC2)ccc1Nc1ncc(Cl)c(Nc2ccccc2S(=O)(=O)C(C)C)n1 [TAE-684, reference compound]
(2) C=CC(=O)Nc1cccc(Oc2nc(Nc3ccc(N4CCN(C)CC4)cc3OC)ncc2Cl)c1 [WZ4002, reference compound]
(3) C=CC(=O)Nc1cc(Nc2ncc(C)c(Nc3ccccc3S(=O)(=O)C(C)C)n2)c(OC)cc1N1CCC(N2CCN(C)CC2)CC1 [Compound 24]
### Prompt Sort low-to-high on GI50, please. In your reply, arrange the labels in the requested order.
### Response 1, 3, 2

----------
Tested on: HCC827
test_method_notes: Growth of cancer cells (Cell Titer-Glo viability), HCC827
Type: cell-based
study_conditions: Homo sapiens; HCC827 (mutant EGFR del19), 72 hrs
Description: By testing the effect of the novel kinase inhibitors on the proliferation of cancer cells, the selectivity of the compounds of the present disclosure in inhibiting the proliferation of cancer cells was further assessed. […] The number of viable cells was determined quantitatively by a microplate reader using Cell Titer-Glo® (Promega, US) chemiluminescence cell viability assay kit.
measured_property: GI50 (nM)

Before answering, review these 8 worked examples.
INSERT INTO measurements (structure_string, test_system, unit, meas_value) VALUES
  ('C=CC(=O)Nc1cc(Nc2ncc(Cl)c(Nc3ccccc3S(=O)(=O)C(C)C)n2)c(OC)cc1N1CCOCC1', 'HCC827', 'nM', 110),
  ('C=CC(=O)Nc1cc(Nc2ncc(Cl)c(Nc3ccccc3S(=O)(=O)C(C)C)n2)c(OC)cc1N1CCCCC1', 'HCC827', 'nM', 51),
  ('C=CC(=O)Nc1cc(Nc2ncc(Cl)c(Nc3ccccc3S(=O)(=O)C(C)C)n2)c(OC)cc1N1CCNCC1', 'HCC827', 'nM', 16),
  ('C=CC(=O)Nc1cc(Nc2ncc(Cl)c(Nc3ccccc3S(=O)(=O)C(C)C)n2)c(OC)cc1N1CCN(CC2CC2)CC1', 'HCC827', 'nM', 32),
  ('C=CC(=O)Nc1cc(Nc2ncc(Cl)c(Nc3ccccc3C(=O)NC)n2)c(OC)cc1N1CCN(C2CCN(C)CC2)CC1', 'HCC827', 'nM', 210),
  ('C=CC(=O)Nc1cc(Nc2ncc(Cl)c(Nc3ccccc3C(=O)NC)n2)c(OC)cc1N1CCC(N2CCOCC2)CC1', 'HCC827', 'nM', 14),
  ('C=CC(=O)Nc1cc(Nc2ncc(C)c(Nc3ccccc3S(=O)(=O)C(C)C)n2)c(OC)cc1N1CCC(N2CCN(C)CC2)CC1', 'HCC827', 'nM', 6.2),
  ('C=CC(=O)Nc1cc(Nc2ncc(Cl)c(Nc3ccccc3S(=O)(=O)C(C)C)n2)c(OC)cc1N1CCN(C(=O)OC(C)(C)C)CC1', 'HCC827', 'nM', 370);

(A) C=CC(=O)Nc1cc(Nc2ncc(Cl)c(Nc3ccccc3S(=O)(=O)C(C)C)n2)c(OC)cc1N1CCN(C)CC1
(B) C=CC(=O)Nc1cc(Nc2ncc(Cl)c(Nc3ccccc3C(=O)NC)n2)c(OC)cc1N1CCN(C(C)C)CC1
(C) C=CC(=O)Nc1cc(Nc2ncc(Cl)c(Nc3ccccc3S(=O)(=O)C(C)C)n2)c(OC)cc1N1CCN(CCOC)CC1
(D) C=CC(=O)Nc1cc(Nc2ncc(Cl)c(Nc3ccccc3S(=O)(=O)C(C)C)n2)c(OC)cc1N1CCC(N2CCN(C)CC2)CC1
(E) C=CC(=O)Nc1cc(Nc2ncc(Cl)c(Nc3ccc(F)c(Cl)c3)n2)c(OC)cc1N1CCN(C)CC1
### Prompt Sort low-to-high on GI50, please. In your reply, arrange the labels in the requested order.
### Response D, A, C, E, B
(D: 2.7 nM, A: 10 nM, C: 15 nM, E: 28 nM, B: 62 nM)

// provenance: patent US10350210B2
